Source: ChEMBL document CHEMBL4765424

system: Severe acute respiratory syndrome coronavirus 2; assay: Inhibition of SARS CoV2 C-terminal His6-tagged 3CL protease expressed in Escherichia coli BL21 DE3 at 50 uM using Thr-Ser-Ala-Val-Leu-Gln-pNA as substrate preincubated for 30 mins followed by substrate addition and measured for 20 mins by colorimetric method relative to control; details: time 50.0 min
Quick reference for inhibition among some molecules

Consider the following illustrative entries.
CCCCN1C(=O)C(=O)c2cc(C(=O)O)ccc21 | < 25%
CN1C(=O)C(=O)c2cc(C(=O)ON3C(=O)CCC3=O)ccc21 | 45%
CN1C(=O)C(=O)c2cc(I)ccc21 | 25%
CN1C(=O)C(=O)c2cc(C(=O)O)ccc21 | < 25%
CCCN1C(=O)C(=O)c2cc(C(=O)OC)ccc21 | 53%
O=C1C(=O)N(CN2CCOCC2)c2ccc(Cl)cc21 | < 25%
O=C1C(=O)N(CN2CCCCC2)c2ccc(F)cc21 | < 25%
CCCCN1C(=O)C(=O)c2cc(C(=O)OC)ccc21 | 42%

Give recorded inhibition. COC(=O)c1ccc2c(c1)C(=O)C(=O)N2CN1CCOCC1
32%

Give recorded inhibition. CCCN1C(=O)C(=O)c2cc(I)ccc21
51%

Give recorded inhibition. O=C(O)c1ccc2c(c1)C(=O)C(=O)N2Cc1ccc2ccccc2c1
32%

Give recorded inhibition. O=C1C(=O)N(CN2CCOCC2)c2ccc([N+](=O)[O-])cc21
< 25%

Give recorded inhibition. O=C1C(=O)N(CO)c2ccccc21
< 25%

Give recorded inhibition. O=C1C(=O)N(CN2CCOCC2)c2ccccc21
< 25%

Give recorded inhibition. CCCCN1C(=O)C(=O)c2cc(C(=O)ON3C(=O)CCC3=O)ccc21
47%

Give recorded inhibition. COC(=O)c1ccc2c(c1)C(=O)C(=O)N2C
53%

Give recorded inhibition. CCCN1C(=O)C(=O)c2cc(C(=O)O)ccc21
< 25%

Give recorded inhibition. O=C1C(=O)N(CN2CCOCC2)c2ccc(F)cc21
< 25%

Give recorded inhibition. O=C(O)c1ccc2c(c1)C(=O)C(=O)N2Cc1ccccc1
< 25%

Give recorded inhibition. COC(=O)c1ccc2c(c1)C(=O)C(=O)N2Cc1ccccc1
45%
